Entry source: paper PMC11073699

Target: UniProtKB A0A1S4G757
Sequence (A0A1S4G757 1-398, one chain of several): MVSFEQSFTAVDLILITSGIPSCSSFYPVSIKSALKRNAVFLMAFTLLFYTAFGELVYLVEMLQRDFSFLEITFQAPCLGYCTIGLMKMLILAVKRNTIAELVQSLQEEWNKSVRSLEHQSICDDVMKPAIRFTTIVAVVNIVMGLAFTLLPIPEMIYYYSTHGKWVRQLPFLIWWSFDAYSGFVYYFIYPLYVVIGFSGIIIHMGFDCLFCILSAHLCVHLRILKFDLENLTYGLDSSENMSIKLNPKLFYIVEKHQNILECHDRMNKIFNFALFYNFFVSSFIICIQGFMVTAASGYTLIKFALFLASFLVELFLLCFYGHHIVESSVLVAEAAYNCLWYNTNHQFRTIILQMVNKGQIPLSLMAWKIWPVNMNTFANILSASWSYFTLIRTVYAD
Assay: Two-electrode voltage clamp of Xenopus laevis oocytes expressing AaegOR6/Orco (blends, unitary compounds, concentration-response)
Type: cell-based
Conditions: Indoles 2 unitary compounds; oocyte 7
OBSERVATION TYPE: Raw data (Responses in nA) Oocyte 7
Quick reminder: number only, in nA, skip the unit.

Below: 5 compounds and their reported Raw data (Responses in nA) Oocyte 7.
{"COMPOUND": "O=Cc1ccnc2ccccc12", "OBSERVATION TYPE": "Raw data (Responses in nA) Oocyte 7", "UNIT STRING": "nA", "RECORDED RESULT": 0.0}
{"COMPOUND": "c1ccc2nccnc2c1", "OBSERVATION TYPE": "Raw data (Responses in nA) Oocyte 7", "UNIT STRING": "nA", "RECORDED RESULT": 0.0}
{"COMPOUND": "O=C1CCOc2ccccc21", "OBSERVATION TYPE": "Raw data (Responses in nA) Oocyte 7", "UNIT STRING": "nA", "RECORDED RESULT": 510.0}
{"COMPOUND": "OCc1c[nH]c2ccccc12", "OBSERVATION TYPE": "Raw data (Responses in nA) Oocyte 7", "UNIT STRING": "nA", "RECORDED RESULT": 0.0}
{"COMPOUND": "O=C1Nc2ccccc2C1=O", "OBSERVATION TYPE": "Raw data (Responses in nA) Oocyte 7", "UNIT STRING": "nA", "RECORDED RESULT": 0.0}

# input for lookup
Lab note: measured Raw data (Responses in nA) Oocyte 7 of Oc1cccc2[nH]ccc12 [4-Hydroxyindole] was 0.0

###

Each record here notes measured Raw Data (Response in nA) Oocyte 2.
Target: UniProt:A0A3S7SHD4
Sequence (A0A3S7SHD4 1-415): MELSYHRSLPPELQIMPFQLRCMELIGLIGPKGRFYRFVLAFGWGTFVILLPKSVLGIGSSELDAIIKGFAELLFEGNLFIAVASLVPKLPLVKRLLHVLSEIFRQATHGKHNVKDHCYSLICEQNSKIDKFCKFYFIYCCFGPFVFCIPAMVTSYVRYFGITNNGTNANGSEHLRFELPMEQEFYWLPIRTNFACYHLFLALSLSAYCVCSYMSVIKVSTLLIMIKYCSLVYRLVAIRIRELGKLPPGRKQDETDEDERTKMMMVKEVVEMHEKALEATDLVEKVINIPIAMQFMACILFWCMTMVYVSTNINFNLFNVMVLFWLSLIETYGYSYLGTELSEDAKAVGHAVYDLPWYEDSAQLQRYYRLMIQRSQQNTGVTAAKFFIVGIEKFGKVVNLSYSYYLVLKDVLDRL
Sequence (Q178U6 1-478 partner): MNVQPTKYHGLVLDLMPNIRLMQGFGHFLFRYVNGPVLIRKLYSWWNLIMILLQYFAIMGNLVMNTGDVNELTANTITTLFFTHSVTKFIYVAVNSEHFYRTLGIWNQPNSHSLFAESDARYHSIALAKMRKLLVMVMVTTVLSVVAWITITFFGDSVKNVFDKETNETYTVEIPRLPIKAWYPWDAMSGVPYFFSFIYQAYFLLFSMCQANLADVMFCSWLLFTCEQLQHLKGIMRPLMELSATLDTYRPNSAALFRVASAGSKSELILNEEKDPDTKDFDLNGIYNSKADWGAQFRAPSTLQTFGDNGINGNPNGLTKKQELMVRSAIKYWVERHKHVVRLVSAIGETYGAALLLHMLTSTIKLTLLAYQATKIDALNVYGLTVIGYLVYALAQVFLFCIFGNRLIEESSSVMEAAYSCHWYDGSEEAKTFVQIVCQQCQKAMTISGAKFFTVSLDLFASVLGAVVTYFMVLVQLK
Experiment: Two-electrode voltage clamp of Xenopus laevis oocytes expressing AaegOR71/Orco (blends, unitary compounds, concentration-response)
Assay type: cell-based
Details: Indoles 2 unitary compounds; oocyte 2
Reply with just the number (in nA).

Sample answers from the record:
{"MOLECULE": "Nc1cccc2cnccc12 [5-Aminoisoquinoline]", "OBSERVATION TYPE": "Raw Data (Response in nA) Oocyte 2", "RECORDED RESULT": 200}
{"MOLECULE": "O=C1CCOc2ccccc21 [4-chromanone, 4-Chromanone]", "OBSERVATION TYPE": "Raw Data (Response in nA) Oocyte 2", "RECORDED RESULT": 310}
{"MOLECULE": "O=C1Cc2ccccc2N1 [Oxindole]", "OBSERVATION TYPE": "Raw Data (Response in nA) Oocyte 2", "RECORDED RESULT": 20}
{"MOLECULE": "O=C(O)Cc1c[nH]c2ccccc12 [1H-Indole-3-acetic acid]", "OBSERVATION TYPE": "Raw Data (Response in nA) Oocyte 2", "RECORDED RESULT": 20}
{"MOLECULE": "Oc1cccc2[nH]ccc12 [4-Hydroxyindole]", "OBSERVATION TYPE": "Raw Data (Response in nA) Oocyte 2", "RECORDED RESULT": 30}

Turning now to a further record.
# Raw Data (Response in nA) Oocyte 2 of c1ccc2nccnc2c1 [Quinoxaline] = 620

###

Target: AaegOR11 (Aedes aegypti, UniProt Q16PN4)
Sequence (Q16PN4 1-420): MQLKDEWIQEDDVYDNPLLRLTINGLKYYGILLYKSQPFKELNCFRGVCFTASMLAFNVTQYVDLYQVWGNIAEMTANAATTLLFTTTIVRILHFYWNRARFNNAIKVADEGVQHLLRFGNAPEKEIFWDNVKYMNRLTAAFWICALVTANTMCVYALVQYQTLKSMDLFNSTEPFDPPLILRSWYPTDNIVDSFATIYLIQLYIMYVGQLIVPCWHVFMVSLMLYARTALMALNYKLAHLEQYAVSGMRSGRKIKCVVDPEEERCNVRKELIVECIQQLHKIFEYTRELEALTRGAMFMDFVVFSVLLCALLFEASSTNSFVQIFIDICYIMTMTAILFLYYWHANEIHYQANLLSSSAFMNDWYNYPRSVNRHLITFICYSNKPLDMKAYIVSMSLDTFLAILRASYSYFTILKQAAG
Sequence (Q178U6 1-478 partner): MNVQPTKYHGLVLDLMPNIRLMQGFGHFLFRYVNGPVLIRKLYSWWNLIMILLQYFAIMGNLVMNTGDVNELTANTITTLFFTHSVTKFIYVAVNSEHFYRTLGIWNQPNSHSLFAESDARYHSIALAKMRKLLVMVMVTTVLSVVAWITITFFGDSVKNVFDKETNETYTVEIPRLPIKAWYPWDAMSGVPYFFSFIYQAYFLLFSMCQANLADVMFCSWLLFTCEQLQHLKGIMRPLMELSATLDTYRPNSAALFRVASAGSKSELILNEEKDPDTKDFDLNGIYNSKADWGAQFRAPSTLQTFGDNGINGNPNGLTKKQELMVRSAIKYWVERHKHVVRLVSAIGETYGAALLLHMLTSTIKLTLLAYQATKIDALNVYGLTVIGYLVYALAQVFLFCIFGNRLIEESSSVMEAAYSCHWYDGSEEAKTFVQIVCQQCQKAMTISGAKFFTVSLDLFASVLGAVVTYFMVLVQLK
Test: Two-electrode voltage clamp of Xenopus laevis oocytes expressing AaegOR11/Orco (blends, unitary compounds, concentration-response)
Assay type: cell-based
Details: average over oocytes (9; fenchones 6)
OBSERVATION TYPE: Normalized response, Average, unitary compounds of blend Terpenes 3
Form field (numeric): enter value without unit.

Use the examples below as a reference point.
{"COMPOUND": "CC(=O)OCCC(C)C [Isomyl acetate]", "RECORDED RESULT": 0.0}
{"COMPOUND": "CC1(C)C(=O)[C@@]2(C)CCC1C2 (single isomer, unassigned; (+)) [(+) Fenchone]", "RECORDED RESULT": 36.7}
{"COMPOUND": "CCCCC/C=C\\C=C\\C(=O)OCC [Ethyl-2-trans-4-cis-decadienoate]", "RECORDED RESULT": 0.0}

The compound listed as C=C1CCC2(C(C)C)CC12 (centres unmarked) shows Normalized response, Average, unitary compounds of blend Terpenes 3 equal to 0.556

Quick note, Normalized response, Average, unitary compounds of blend Terpenes 3 for CC1(C)C(=O)[C@]2(C)CCC1C2 (single isomer, unassigned; (-)) [(-) Fenchone] landed at 23.3

###

Target: AaegOR71 (Aedes aegypti, UniProt A0A3S7SHD4)
Sequence (A0A3S7SHD4 1-415): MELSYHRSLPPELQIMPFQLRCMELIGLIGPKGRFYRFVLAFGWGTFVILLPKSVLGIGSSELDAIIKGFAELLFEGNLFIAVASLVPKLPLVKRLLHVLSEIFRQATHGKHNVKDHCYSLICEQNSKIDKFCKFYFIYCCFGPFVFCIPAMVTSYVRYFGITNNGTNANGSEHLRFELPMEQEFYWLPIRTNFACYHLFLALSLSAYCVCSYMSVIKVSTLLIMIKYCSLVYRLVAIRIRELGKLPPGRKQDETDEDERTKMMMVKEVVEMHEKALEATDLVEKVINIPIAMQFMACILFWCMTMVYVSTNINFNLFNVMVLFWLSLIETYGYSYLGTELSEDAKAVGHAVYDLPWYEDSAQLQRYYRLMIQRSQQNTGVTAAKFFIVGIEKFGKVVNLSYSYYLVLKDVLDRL
Sequence (Q178U6 1-478 partner): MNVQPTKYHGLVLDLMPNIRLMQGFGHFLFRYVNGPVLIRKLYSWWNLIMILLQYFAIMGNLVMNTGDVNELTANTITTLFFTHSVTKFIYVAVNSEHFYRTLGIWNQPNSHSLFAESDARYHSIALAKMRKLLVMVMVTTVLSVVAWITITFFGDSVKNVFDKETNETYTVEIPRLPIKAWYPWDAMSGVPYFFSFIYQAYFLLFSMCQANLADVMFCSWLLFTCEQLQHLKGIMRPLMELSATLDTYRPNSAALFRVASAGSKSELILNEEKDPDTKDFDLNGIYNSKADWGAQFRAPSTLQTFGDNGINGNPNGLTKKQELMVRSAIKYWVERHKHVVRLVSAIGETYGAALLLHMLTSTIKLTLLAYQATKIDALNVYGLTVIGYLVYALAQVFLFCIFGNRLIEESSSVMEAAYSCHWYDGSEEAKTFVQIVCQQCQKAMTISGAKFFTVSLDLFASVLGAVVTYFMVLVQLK
Assay: Two-electrode voltage clamp of Xenopus laevis oocytes expressing AaegOR71/Orco (blends, unitary compounds, concentration-response)
Assay type: cell-based
Conditions: Indoles 2 unitary compounds; oocyte 5
# Raw Data (Response in nA) Oocyte 5 values compiled below
Please report the result as a number followed by the unit.

Record `c1ccc2ncncc2c1` . Reported Raw Data (Response in nA) Oocyte 5: 40 nA

Oc1cccc2[nH]ccc12 [4-Hydroxyindole] has a reported Raw Data (Response in nA) Oocyte 5 of 0 nA

The compound identified as `O=C(O)Cc1c[nH]c2ccccc12` registered its Raw Data (Response in nA) Oocyte 5 at 20 nA

Field Raw Data (Response in nA) Oocyte 5 (entry `O=Cc1ccnc2ccccc12` ) reads 390 nA

Record summary for `O=C1CCOc2ccccc21` : reported Raw Data (Response in nA) Oocyte 5 = 15 nA
